# Test system: NCI/ADR-RES ovarian
# test.details: NCI-60 one-dose screen, 48 h (100 = growth as untreated, 0 = no growth, -100 = all killed)
# test.conditions: 10 µM unless noted
About 83,000 compounds went through this panel and 20% of them were active in at least one assay; those are over-represented in the sample as a whole.
measured.quantity: growth (%)
Output spec: scalar in %, unitless text.

Task: # query: growth of entry Cc1ccc(-c2csc(N/N=C/c3nc4ccccc4n3C3CC3)n2)cc1
Output: 72.9

Task: # query: growth of entry CC1CCN(S(=O)(=O)c2ncsc2-c2ccccc2)CC1
Output: 90

Task: # query: growth of entry O=C(CSc1nnc(-c2cccs2)n1-c1ccccc1)Nc1ccc(F)cc1
Output: 90.7

Task: # query: growth of entry CN1CCN(Cc2ccc(NC(=O)c3cncc(C#Cc4[nH]nc5ncncc45)c3)cc2C(F)(F)F)CC1
Output: 105

Task: # query: growth of entry O=C(/C=C/Nc1ccc(S(=O)(=O)O)cc1)c1ccc(F)cc1
Output: 97.3

Task: # query: growth of entry C#CCOc1ccc(C(Nc2ccc(Cl)cc2)c2nnnn2C2CCCCC2)cc1 (centres undefined)
Output: 76.6

Task: # query: growth of entry C#C[C@]1(O)CC[C@H]2[C@@H]3CC=C4c5sc(Nc6ccncc6)nc5CC[C@]4(C)[C@H]3CC[C@@]21C
Output: 33.1

Task: # query: growth of entry CCN1C(=O)N(CC)C2SC(N/N=C/C=C/c3ccccc3OC)=NC21 (centres undefined)
Output: 11.9

Task: # query: growth of entry Cc1cccc(NC(c2cc3cccc4ccc5cccc2c5c43)c2nnnn2C(C)(C)C)c1C (centres undefined)
Output: 89.4

Task: # query: growth of entry CC1(C)CC[C@]2(C(=O)N3CCCNCC3)CC[C@]3(C)C(=CC[C@@H]4[C@@]5(C)CCC(=O)C(C)(C)[C@@H]5CC[C@]43C)[C@H]2C1
Output: 100

Task: # query: growth of entry O=c1oc2ccc(-c3ccc(F)cc3F)cc2c(=O)n1-c1cccc(C(F)(F)F)c1
Output: 4

Task: # query: growth of entry NS(=O)(=O)c1ccc(-n2cc(CC=O)nn2)cc1
Output: 104

Task: # query: growth of entry C=CCn1c(SCC(=O)Nc2cccc(C(=O)/C=C/c3ccccc3Cl)c2)nc2ccccc2c1=O
Output: 90.4

Task: # query: growth of entry CCNC(=NCCCN(C)C)N/C(N)=N/c1nc2ccccc2s1
Output: 96.8

Task: # query: growth of entry CCCCCCNC(=O)Oc1ccc(/C(=C(/C)c2ccccc2)c2ccc(OCCN(C)C)cc2)cc1
Output: 71.2

Task: # query: growth of entry O=C(/C=C/c1cn(-c2ccccc2)nc1-c1ccc(Cl)cc1)c1cc2ccccc2oc1=O
Output: 71.9

Task: # query: growth of entry COc1cc(-c2nc(SCc3ccc(C)cc3)[nH]c(=O)c2C#N)ccc1OCc1ccccc1
Output: 103

Task: # query: growth of entry NS(=O)(=O)c1ccc(Nc2nc(N/N=C/c3ccc(F)cc3)nc(Nc3ccccc3)n2)cc1
Output: 95.6

Task: # query: growth of entry CCOC(=O)c1c(Nc2ccccc2)nn2c(-c3ccc(Br)cc3)ccnc12
Output: 59.8

Task: # query: growth of entry O=C(Nc1cc(Cl)cc(Cl)c1)Nc1nc2ccc([N+](=O)[O-])cc2s1
Output: 2.26

Task: # query: growth of entry O=C1c2c(O)cc(O)cc2O[C@@H](c2ccc(O)cc2)[C@@H]1c1c(O)cc(O)c2c(=O)cc(-c3ccc(O)c(O)c3)oc12
Output: 95.7

Task: # query: growth of entry C#CCOc1ccc(/C=N/Nc2nc(-c3cc(Cl)ccc3Cl)cs2)cc1
Output: 95

Task: # query: growth of entry Cc1ccc(-c2cc(-c3cccc4ccccc34)n3c(n2)nc2ccccc23)cc1
Output: 67.7

Task: # query: growth of entry COc1ccc(-c2nc(SCC(C)C)nc(N/N=C\c3cccc([N+](=O)[O-])c3)c2C#N)cc1
Output: 51.5

Task: # query: growth of entry COc1ccc2c(C3=C(c4cn(C)c5ccccc45)C(=O)NC3=O)coc2c1
Output: 25.1

Task: # query: growth of entry O=C(NNc1nc2cc(F)c(F)cc2n2cccc12)c1ncccn1
Output: 10.1

Task: # query: growth of entry O=c1[nH]c(CNc2ccc(NCc3c(-c4ccccc4)no[n+]3[O-])cc2)nc2c1cnn2-c1ccccc1
Output: 60.6

Task: # query: growth of entry CS(=O)c1nccc(-c2c(-c3ccc(F)c(OCCc4ccccc4)c3)nc3sccn23)n1 (centres undefined)
Output: 108

Task: # query: growth of entry O=[N+]([O-])c1ccc(-c2nnc(SCc3ccc(O)c4ncccc34)o2)cc1
Output: 25.3

Task: # query: growth of entry O=C(/C=C1\C=CN(CCCCCCF)c2ccccc21)n1ccc2ccccc21
Output: 105

Task: # query: growth of entry O=C1[C@H]2Cc3c([nH]c4ccccc34)[C@@H](c3c(Cl)cccc3Cl)N2C(=O)CN1C1CCN(Cc2ccccc2)CC1
Output: 92.8

Task: # query: growth of entry Oc1ccccc1-c1nnc(SCc2ccc(O)c3ncccc23)n1-c1ccccc1
Output: 6.23

Task: # query: growth of entry Oc1ccc(CSc2nnc(-c3ccncc3)o2)c2cccnc12
Output: 58.4

Task: # query: growth of entry CCN1C(=O)N(CC)C2SC(N/N=C/c3cccs3)=NC21 (centres undefined)
Output: -0.335

Task: # query: growth of entry NNC(=O)c1sc2nc(-c3cnccn3)cc(-c3cccs3)c2c1N
Output: 105

Task: # query: growth of entry NC(=O)C(=Cc1ccc(Cl)cc1)C(N)=O
Output: 57.1

Task: # query: growth of entry O=c1oc2ccc(-c3ccc(F)cc3F)cc2c(=O)n1-c1ccc(F)c(F)c1
Output: 3.65

Task: # query: growth of entry NCCN1CCN(c2nc(-c3ccccc3)nc3nc(-c4ccccc4)oc23)CC1
Output: -45.3

Task: # query: growth of entry Nc1nc(-c2cccc([N+](=O)[O-])c2)c(N=Nc2cccc(Cl)c2)s1
Output: 38.9

* * *

# Tested on: SK-OV-3 ovarian
# test.details: NCI-60 one-dose screen, 48 h (100 = growth as untreated, 0 = no growth, -100 = all killed)
# test.conditions: 10 µM unless noted
About 83,000 compounds went through this panel and 20% of them were active in at least one assay; those are over-represented in the sample as a whole.
Please provide measured growth for the entries that follow.
Output spec: scalar in %, unitless text.

Task: # query: growth of entry CCc1ccc(NC(=O)N[C@@H](Cc2cccc(F)c2)C(=O)N[C@@H]2C(=O)N3CCC[C@H]3C(=O)N3CCCC[C@H]3C(=O)N[C@@H](CO)C(=O)N3C[C@H](C)C[C@H]3C(=O)O[C@H]2C)c(F)c1
Output: 21.8

Task: # query: growth of entry CCc1ccc(NC(=O)N[C@@H](Cc2cccc(F)c2)C(=O)N[C@@H]2C(=O)N3CCC[C@H]3C(=O)N3CCCC[C@H]3C(=O)N[C@@H](C)C(=O)N3C[C@H](C)C[C@H]3C(=O)O[C@H]2C)c(F)c1
Output: 24.9

Task: # query: growth of entry C#CCOc1ccc(C(Nc2ccc(OC)cc2)c2nnnn2C2CCCCC2)cc1 (stereo unspecified)
Output: 118

Task: # query: growth of entry CC[C@]12C=CCN3CC[C@]4(C(=C(C(=O)OC)C1)Nc1cc5c(cc14)[C@@H]1[C@H](O5)[C@@H](O)[C@@]4(CC)CC(C(=O)OC)=C5Nc6cc(OC)ccc6[C@@]56CCN1[C@@H]46)[C@@H]32
Output: 25

Task: # query: growth of entry COCCOc1ccc(-c2csc(NC(=O)CN3CCN(CCO)CC3)n2)cc1NS(=O)(=O)c1cccc2c(N(C)C)cccc12
Output: 92.9

Task: # query: growth of entry CSc1ccc(/C(=N/N=C(N)N)c2ccccc2)cc1
Output: 66.2

* * *

# Tested on: K-562 leukemia
# test.details: NCI-60 one-dose screen, 48 h
# test.conditions: 10 µM unless noted
This is part of a sample that, as a whole, favours compounds with a hit. Of some 83,000 tested, about 20% had one in any assay. The source made the active and inactive calls. How the source made its calls: active means growth percent below 10; inactive means the rest.
Returns: one label drawn from true (1) for active, false (0) for inactive

Task: # fetch the recorded call for COc1ccc(/C=N/Nc2nc(N/N=C/c3ccc(OC)cc3O)nc(N3CCOCC3)n2)c(O)c1 here
Output: false (0)

Task: # fetch the recorded call for COc1cc(CNC(=O)/C=C/c2ccccc2)ccc1OCC(=O)NO here
Output: false (0)

Task: # fetch the recorded call for CNC(=O)c1c(NC(=O)c2ccc(F)cc2F)sc2c1CCC(=O)C2 here
Output: false (0)

Task: # fetch the recorded call for CN(c1ccc(F)cc1)S(=O)(=O)c1ccc(-c2cnc(C3CC3)o2)cc1 here
Output: false (0)

Task: # fetch the recorded call for O=C(/C=C/Nc1ccc(S(=O)(=O)O)cc1)c1ccc(F)cc1 here
Output: false (0)

Task: # fetch the recorded call for O=C(CSc1nnc(-c2cccs2)n1-c1ccccc1)Nc1ccc(F)cc1 here
Output: false (0)

Task: # fetch the recorded call for Fc1ccccc1/C=C(/C1=NCCN1)n1cnc2ccccc21 here
Output: false (0)

Task: # fetch the recorded call for COc1ccc(-c2ccnc3c(C#N)c(Nc4ccccc4)nn23)cc1OC here
Output: false (0)

Task: # fetch the recorded call for N=c1c2cc(-c3ccccc3)oc2ncn1/N=C/c1ccccc1 here
Output: false (0)

Task: # fetch the recorded call for O=C1C[C@@H](c2ccccc2)Oc2c(Cc3ccccc3O)c(O)c(Cc3cc(Cc4cc(Cc5ccccc5O)ccc4O)ccc3O)c(O)c21 here
Output: false (0)

Task: # fetch the recorded call for Cc1cc(Cl)cc(NS(=O)(=O)c2ccc(-c3cnc(C4CC4)o3)cc2)c1 here
Output: true (1)

Task: # fetch the recorded call for C/C(=C(/C)C1CC1CCN(C(=O)c1ccccn1)S(=O)(=O)c1ccc(C)cc1)C1CCCCC1 (stereo not given) here
Output: false (0)

Task: # fetch the recorded call for CN1CCN(c2ccc(NC(=O)Nc3ccc4c(ccn4-c4cccc(C(N)=O)n4)c3)cc2C(F)(F)F)CC1 here
Output: true (1)

Task: # fetch the recorded call for Cc1ccc(NC(=O)c2ccc(CN3CCN(C)CC3)c(C(F)(F)F)c2)cc1Oc1ccc(-c2[nH]nc3ncnc(N)c23)cc1 here
Output: true (1)

Task: # fetch the recorded call for COc1ccc(OC)c(NC2=C(Cl)C(=O)C(C)=C(C)C2=O)c1 here
Output: false (0)

Task: # fetch the recorded call for CSc1nccc(-c2c(-c3ccc(F)c(OCc4ccc(F)cc4)c3)nc3sccn23)n1 here
Output: false (0)

Task: # fetch the recorded call for CC(C)Sc1nc(NC2CC2)c(C#N)c(-c2ccccc2)n1 here
Output: false (0)

Task: # fetch the recorded call for Cc1cn(-c2cc(NC(=O)c3cncc(C#Cc4cnc5ccc(OCCCS(C)(=O)=O)nn45)c3)cc(C(F)(F)F)c2)cn1 here
Output: false (0)

Task: # fetch the recorded call for O=C(/C=C/c1cccc(O)c1)c1ccc(O)cc1 here
Output: false (0)

Task: # fetch the recorded call for O=C(Nc1ccccc1)Nc1nc2ccc([N+](=O)[O-])cc2s1 here
Output: true (1)

Reference source for all entries: PubChem BioAssay (NCI)
